experiment: Drug excretion in Sprague-Dawley rat feces at 2 mg/kg, iv after 96 hrs
Assay type: ADME, organism-based
Set-up: dose 2 mg/kg, route intravenous
run-parameters: faeces, read-out: Activity
measurement-label: dose excreted at 96 h (%)
State the answer as a number, implicitly in %.

**Query** Give its dose excreted at 96 h value. Item: Cc1cc(OCP(=O)(O)O)cc(C)c1Cc1ccc(O)c(C(C)C)c1
**Result** 98

###

Tested on: CYP3A
experiment: Activity of CYP3A in Sprague-Dawley rat liver microsome
Format: ADME
run-parameters: Sprague-Dawley, liver microsomes
measurement-label: Km (µM)
State the answer as a number, implicitly in µM.

**Query** Lab note: need Km with CYP3A for entry Cc1cc(OCP2(=O)OCC[C@@H](c3cccc(Cl)c3)O2)cc(C)c1Cc1ccc(O)c(C(C)C)c1 (stereo partly specified) [MB07811] , please look it up.
**Result** 18.8

###

experiment: Cmax in Sprague-Dawley rat at 5 mg/kg, iv
Type: ADME, organism-based
Set-up: dose 5 mg/kg, route intravenous
run-parameters: in vivo
measurement-label: Cmax

**Query** Give its Cmax value. Item: Cc1cc(OCP(=O)(O)O)cc(C)c1Cc1ccc(O)c(C(C)C)c1
**Result** 40400 ng/mL

###

experiment: Clearance in Sprague-Dawley rat at 3 mg/kg, iv
Format: ADME, organism-based
Design: dose 3 mg/kg, route intravenous
run-parameters: in vivo
measurement-label: clearance (mL/min/kg)
State the answer as a number, implicitly in mL/min/kg.

**Query** Give its clearance value. Item: Cc1cc(OCP2(=O)OCC[C@@H](c3cccc(Cl)c3)O2)cc(C)c1Cc1ccc(O)c(C(C)C)c1 (stereo partly specified)
**Result** 193

###

system-under-test: Thyroid hormone receptor beta (Homo sapiens, UniProt P10828)
Sequence (P10828 whole entry): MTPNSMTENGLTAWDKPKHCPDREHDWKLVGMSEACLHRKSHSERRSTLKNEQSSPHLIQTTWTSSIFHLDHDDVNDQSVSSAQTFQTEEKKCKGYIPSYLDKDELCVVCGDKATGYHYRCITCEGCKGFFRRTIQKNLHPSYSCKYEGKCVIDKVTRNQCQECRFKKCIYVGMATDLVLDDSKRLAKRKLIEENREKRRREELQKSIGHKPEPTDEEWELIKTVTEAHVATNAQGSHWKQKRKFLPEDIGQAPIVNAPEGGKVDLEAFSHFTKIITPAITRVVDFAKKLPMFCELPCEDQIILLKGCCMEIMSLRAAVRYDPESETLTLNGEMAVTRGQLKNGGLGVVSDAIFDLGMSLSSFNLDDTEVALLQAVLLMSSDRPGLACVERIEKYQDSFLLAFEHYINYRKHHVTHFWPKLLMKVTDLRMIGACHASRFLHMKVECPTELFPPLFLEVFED
experiment: Displacement of [125I]T3 from recombinant thyroid hormone receptor beta expressed in sf9 cells by scintillation proximity assay
measurement-label: Ki (µM)
State the answer as a number, implicitly in µM.

**Query** Lab note: need Ki with Thyroid hormone receptor beta (Homo sapiens, UniProt P10828) for entry Cc1cc(OCP2(=O)OCC[C@@H](c3cccc(Cl)c3)O2)cc(C)c1Cc1ccc(O)c(C(C)C)c1 (some centres not stated) [MB07811] , please look it up.
**Result** 14.6

**Query** Lab note: need Ki with Thyroid hormone receptor beta (Homo sapiens, UniProt P10828) for entry Cc1cc(OCP(=O)(O)O)cc(C)c1Cc1ccc(O)c(C(C)C)c1 [MB07344] , please look it up.
**Result** 0.00217

###

experiment: AUC (0 to 24 hrs) in bile-diverted Sprague-Dawley rat at 10 mg/kg, iv
Assay type: ADME, organism-based
Parameters: time < 24 hr, dose 10 mg/kg, route intravenous
run-parameters: plasma
measurement-label: AUC(0-t) at 24 h (ng·h/mL)
State the answer as a number, implicitly in ng·h/mL.

**Query** Give its AUC(0-t) at 24 h value. Item: Cc1cc(OCP(=O)(O)O)cc(C)c1Cc1ccc(O)c(C(C)C)c1
**Result** 48100

###

experiment: Clearance in Sprague-Dawley rat at 5 mg/kg, iv
Type: ADME, organism-based
Parameters: dose 5 mg/kg, route intravenous
run-parameters: in vivo
measurement-label: clearance
Output should be the measured figure followed by the unit it is expressed in.

**Query** Give its clearance value. Item: Cc1cc(OCP(=O)(O)O)cc(C)c1Cc1ccc(O)c(C(C)C)c1
**Result** 4.67 mL/min/kg
